# assay.target: T1, T8 (Tn-MUC1) (PAPGST(α-GalNAc)APPAHGVTSAPDT(α-GalNAc)RPAPG-OH)
# T1 peptide: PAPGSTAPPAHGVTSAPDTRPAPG
# experimental.details: glycopeptide array
Reported EC50 values for the following binders.
observation.type: EC50 (µg/mL)

>>> observed("174 (antibody, V domains shown) VH: EVQLVESGAEVKKPGASVKVSCKASGYTFNRYYLHWVRQAPGQGLEWMGVINPYDGSTNYAQKFRGRITMTRDTSTNTVYMELSSLRSEDTAVYFCARDAMEGDSYFDKWGQGTLVTVSS")
0.174
>>> observed("126 (antibody, V domains shown) VH: QVQLVQSGAEVKKPGASVKVSCKASGYTFNRYYLHWVRQAPGQGLEWMGVINPYDGSTNYAQKFRGRVTMTRDTSTNTVYMELSSLRSEDTAVYFCARDAMEGDSYFDNWGQGTTVTVSS")
0.168
>>> observed("182 (antibody, V domains shown) VH: QVQLVQSGAEVKKPGASVKVSCKASGYSFTYSYIQWVRLAPGRGLEWMGVINPYDGSTDYAQKFQGRVTLTRDTSTTTVYMELSSLTSEDTAVYYCARDFMIGYVVFDYWGQGTLVTVSS")
0.098
>>> observed("102 (antibody, V domains shown) VH: QVQLVQSGAEVKKSGASVKVSCKASGYPFISYYIHWLRQAPGQGLTWMGVINPFDGSTDYAQKFQGRVTVTRDTSTSTVYMDLSSLRADDTAIYYCARDYMRGYVVFDYWGQGTLVTVSS")
0.101
